Reported degree of analgesic effectiveness by item:
# System: psoriatic arthritis of interphalangeal joints of the fingers
# TEST_SUMMARY: Example 93: multiple derivatives evaluated for relief of pain associated with psoriatic arthritis, topical
# Type: in vivo, human
# ASSAY_CONDITIONS: 0.8% (w/v) in WEP442, topical to both hands
*: point of attachment. NHPhenethyl = c1ccc(CCN*)cc1; Propionyl = CCC(=O)*; NHNH2 = NN*
METRIC_NAME: degree of analgesic effectiveness

INSERT INTO measurements (substance, measured_result) VALUES
  ('N-Ac-Tyr-Pro-Phe-Phe-NHCH2CH3 (Ac-YPFF-NHEt; SMILES CCNC(=O)[C@H](Cc1ccccc1)NC(=O)[C@H](Cc1ccccc1)NC(=O)[C@@H]1CCCN1C(=O)[C@H](Cc1ccc(O)cc1)NC(C)=O)', '4+'),
  ('N-Ac-Tyr-Pro-Phe-Phe-NHCH2CH2C6H5 (Ac-YPFF-NHPhenethyl; SMILES CC(=O)N[C@@H](Cc1ccc(O)cc1)C(=O)N1CCC[C@H]1C(=O)N[C@@H](Cc1ccccc1)C(=O)N[C@@H](Cc1ccccc1)C(=O)NCCc1ccccc1)', '0 (zero represented no relief)'),
  ('N-Pa-Tyr-Pro-Phe-Phe-NHNH2 (Propionyl-YPFF-NHNH2; SMILES CCC(=O)N[C@@H](Cc1ccc(O)cc1)C(=O)N1CCC[C@H]1C(=O)N[C@@H](Cc1ccccc1)C(=O)N[C@@H](Cc1ccccc1)C(=O)NN)', '4+');

---

# Tested on: severe osteoarthritis of both knees
# TEST_SUMMARY: Example 88: analgesic efficacy of eight derivatives on severe osteoarthritis, topical
# Format: in vivo, human
# ASSAY_CONDITIONS: 1% (w/v) in WEP442, topical to the knees
Primed or numbered codes have the meaning given here. *: point of attachment. Bz′ = not defined here; NHNHAc = CC(=O)NN*; For = O=C*; NHOH = ON*
METRIC_NAME: duration of pain relief

INSERT INTO assay_data (substance, metric_name, measured_result) VALUES
  ('N-Bz-Tyr-Pro-Phe-Phe-NH2 ({Bz′}-YPFF-NH2)', 'duration of pain relief', 'about 4 hours'),
  ('N-Fo-Tyr-Pro-Phe-Phe-NH2 (For-YPFF-NH2; SMILES NC(=O)[C@H](Cc1ccccc1)NC(=O)[C@H](Cc1ccccc1)NC(=O)[C@@H]1CCCN1C(=O)[C@H](Cc1ccc(O)cc1)NC=O)', 'duration of pain relief', 'about 4 hours'),
  ('N-Ac-Tyr-Pro-Phe-Phe-NHNHAc (Ac-YPFF-NHNHAc; SMILES CC(=O)NNC(=O)[C@H](Cc1ccccc1)NC(=O)[C@H](Cc1ccccc1)NC(=O)[C@@H]1CCCN1C(=O)[C@H](Cc1ccc(O)cc1)NC(C)=O)', 'duration of pain relief', 'about 5 hours'),
  ('N-Ac-Tyr-Pro-Phe-Phe-NHOH (Ac-YPFF-{NHOH}; SMILES CC(=O)N[C@@H](Cc1ccc(O)cc1)C(=O)N1CCC[C@H]1C(=O)N[C@@H](Cc1ccccc1)C(=O)N[C@@H](Cc1ccccc1)C(=O)NO)', 'duration of pain relief', 'about 5 hours'),
  ('N-Ac-Tyr-Pro-Phe-Phe-NHCH2CH3 (Ac-YPFF-NHEt; SMILES CCNC(=O)[C@H](Cc1ccccc1)NC(=O)[C@H](Cc1ccccc1)NC(=O)[C@@H]1CCCN1C(=O)[C@H](Cc1ccc(O)cc1)NC(C)=O)', 'duration of pain relief', '3 to 4 h');

---

# Test system: periostitis of right upper tibia, osteoarthritis of left knee, left hip joint pain, lower back pain
# TEST_SUMMARY: Example 87: pain relief at multiple sites in one subject, topical
# Format: in vivo, human
# ASSAY_CONDITIONS: 0.8% (w/v) in WEP442, topical to the sites of pain
Primed or numbered codes have the meaning given here. *: point of attachment. Bz′ = not defined here; NHBn = c1ccc(CN*)cc1; NHNHAc = CC(=O)NN*; NHiPr = CC(C)N*; NHOH = ON*
METRIC_NAME: time to pain relief

INSERT INTO results (substance, metric_name, measured_result) VALUES
  ('N-Ac-Tyr-Pro-Phe-Phe-NHNHAc (Ac-YPFF-NHNHAc; SMILES CC(=O)NNC(=O)[C@H](Cc1ccccc1)NC(=O)[C@H](Cc1ccccc1)NC(=O)[C@@H]1CCCN1C(=O)[C@H](Cc1ccc(O)cc1)NC(C)=O)', 'time to pain relief', '1 to 2 min'),
  ('N-Ac-Tyr-Pro-Phe-Phe-NHCH2CH3 (Ac-YPFF-NHEt; SMILES CCNC(=O)[C@H](Cc1ccccc1)NC(=O)[C@H](Cc1ccccc1)NC(=O)[C@@H]1CCCN1C(=O)[C@H](Cc1ccc(O)cc1)NC(C)=O)', 'time to pain relief', '3 to 4 min'),
  ('N-Bz-Tyr-Pro-Phe-Phe-NH2 ({Bz′}-YPFF-NH2)', 'time to pain relief', '2 to 4 min'),
  ('N-Ac-Tyr-Pro-Phe-Phe-NHCH2C6H5 (Ac-YPFF-NHBn; SMILES CC(=O)N[C@@H](Cc1ccc(O)cc1)C(=O)N1CCC[C@H]1C(=O)N[C@@H](Cc1ccccc1)C(=O)N[C@@H](Cc1ccccc1)C(=O)NCc1ccccc1)', 'time to pain relief', '3 to 4 min'),
  ('N-Ac-Tyr-Pro-Phe-Phe-NHCH(CH3)2 (Ac-YPFF-NHiPr; SMILES CC(=O)N[C@@H](Cc1ccc(O)cc1)C(=O)N1CCC[C@H]1C(=O)N[C@@H](Cc1ccccc1)C(=O)N[C@@H](Cc1ccccc1)C(=O)NC(C)C)', 'time to pain relief', '3 to 4 min'),
  ('N-Ac-Tyr-Pro-Phe-Phe-NHOH (Ac-YPFF-{NHOH}; SMILES CC(=O)N[C@@H](Cc1ccc(O)cc1)C(=O)N1CCC[C@H]1C(=O)N[C@@H](Cc1ccccc1)C(=O)N[C@@H](Cc1ccccc1)C(=O)NO)', 'time to pain relief', '≤ 1 min');

---

# Test system: periostitis of right upper tibia, osteoarthritis of left knee, left hip joint pain, lower back pain
# TEST_SUMMARY: Example 87: pain relief at multiple sites in one subject, topical
# Type: in vivo, human
# ASSAY_CONDITIONS: 0.8% (w/v) in WEP442, topical to the sites of pain
*: point of attachment. NHBn = c1ccc(CN*)cc1; NHNHAc = CC(=O)NN*; NHOH = ON*
METRIC_NAME: duration of pain relief

INSERT INTO measurements (substance, metric_name, measured_result) VALUES
  ('N-Ac-Tyr-Pro-Phe-Phe-NHNHAc (Ac-YPFF-NHNHAc; SMILES CC(=O)NNC(=O)[C@H](Cc1ccccc1)NC(=O)[C@H](Cc1ccccc1)NC(=O)[C@@H]1CCCN1C(=O)[C@H](Cc1ccc(O)cc1)NC(C)=O)', 'duration of pain relief', '8 to 24 h'),
  ('N-Ac-Tyr-Pro-Phe-Phe-NHCH2CH3 (Ac-YPFF-NHEt; SMILES CCNC(=O)[C@H](Cc1ccccc1)NC(=O)[C@H](Cc1ccccc1)NC(=O)[C@@H]1CCCN1C(=O)[C@H](Cc1ccc(O)cc1)NC(C)=O)', 'duration of pain relief', '≥ 5 h'),
  ('N-Ac-Tyr-Pro-Phe-Phe-NHCH2C6H5 (Ac-YPFF-NHBn; SMILES CC(=O)N[C@@H](Cc1ccc(O)cc1)C(=O)N1CCC[C@H]1C(=O)N[C@@H](Cc1ccccc1)C(=O)N[C@@H](Cc1ccccc1)C(=O)NCc1ccccc1)', 'duration of pain relief', '≥ 5 h'),
  ('N-Ac-Tyr-Pro-Phe-Phe-NHOH (Ac-YPFF-{NHOH}; SMILES CC(=O)N[C@@H](Cc1ccc(O)cc1)C(=O)N1CCC[C@H]1C(=O)N[C@@H](Cc1ccccc1)C(=O)N[C@@H](Cc1ccccc1)C(=O)NO)', 'duration of pain relief', '≥ 12 h');

---

# Test system: psoriatic arthritis of interphalangeal joints of the fingers
# TEST_SUMMARY: Example 93: multiple derivatives evaluated for relief of pain associated with psoriatic arthritis, topical
# Type: in vivo, human
# ASSAY_CONDITIONS: 0.8% (w/v) in WEP442, topical to both hands
# Source text: A subject with extensive plaque psoriasis and psoriatic arthritis of interphalangeal joints of the fingers evaluated multiple tetrapeptide derivatives for comparative effectiveness on relief of their painful fingers. Over the course of 4 weeks, this subject evaluated the analgesic efficacy of ten (10) endomorphin-2 tetrapeptide derivatives in WEP442 at a concentration of 0.8% (w/v) applied topically to both hands, which included all fingers.
*: point of attachment. Propionyl = CCC(=O)*; NHNHAc = CC(=O)NN*; NHOH = ON*
METRIC_NAME: degree of analgesic effectiveness

INSERT INTO results (substance, assayed_target, measured_result) VALUES
  ('N-Pa-Tyr-Pro-Phe-Phe-NHOH (Propionyl-YPFF-{NHOH}; SMILES CCC(=O)N[C@@H](Cc1ccc(O)cc1)C(=O)N1CCC[C@H]1C(=O)N[C@@H](Cc1ccccc1)C(=O)N[C@@H](Cc1ccccc1)C(=O)NO)', 'psoriatic arthritis of interphalangeal joints of the fingers', '4+'),
  ('N-Ac-Tyr-Pro-Phe-Phe-NHNHAc (Ac-YPFF-NHNHAc; SMILES CC(=O)NNC(=O)[C@H](Cc1ccccc1)NC(=O)[C@H](Cc1ccccc1)NC(=O)[C@@H]1CCCN1C(=O)[C@H](Cc1ccc(O)cc1)NC(C)=O)', 'psoriatic arthritis of interphalangeal joints of the fingers', '4+');
